The reported numbers originate from PubChem BioAssay.

Assay: caspase-8 TRAIL sensitization, hit retest, confirmation, cell-based, NB7+caspase-8, with/without TRAIL, luminescence panel (AID 651596)
Conditions: NB7 neuroblastoma + caspase-8, without TRAIL, luminescence viability, without TRAIL, mean of runs, at 10 µM
PROPERTY LABEL: activity (%)

INSERT INTO assay_data (compound, property_label, observed) VALUES
  ('COc1ccc(/C=N/Nc2nnc(Cc3ccccc3)c(=O)[nH]2)cc1OC', 'activity', 59.2),
  ('COC(=O)Cc1ccc(NC(=O)c2ccc(C(C)(C)C)cc2)cc1', 'activity', 77.3),
  ('CCCNC(=O)c1ccc(-c2nc3ccccc3s2)s1', 'activity', 83.5),
  ('Cc1cc(C)cc(C(=O)Nc2nc3ccccc3[nH]2)c1', 'activity', 72.5),
  ('CC1=C(C(=O)Nc2ccccc2)C(c2ccc(C)cc2)N=C(Nc2nc3ccccc3o2)N1 (stereo unspecified)', 'activity', 76),
  ('CC(C)(C)C(=O)Nc1ccc(NC(=O)c2ccco2)nc1', 'activity', 98.5),
  ('Cc1ccc(Nc2nc(N)c3ccccc3n2)cc1C', 'activity', 78),
  ('O=C(Nc1ccc2[nH]ccc2c1)c1cccs1', 'activity', 52.9),
  ('O=C(CC1SC(=Nc2ccccc2F)N(CCN2CCOCC2)C1=O)Nc1ccc(F)cc1F (stereo unspecified)', 'activity', -7.28),
  ('CC(=O)Nc1ccc(/C=N/Nc2nc3ccccc3[nH]2)cc1', 'activity', 75.5),
  ('Cc1ccnc(NC(=S)NC(=O)c2cccs2)c1', 'activity', 87.7);
